Just for reference, ChEMBL document CHEMBL2439950 is where these values come from.

system: Hydroxyapatite; experiment: Binding affinity to bone mineral hydroxyapatite assessed as adsorbed level at 100 uM after 2 hrs by UV-spectrophotometric analysis
// Criterion not met strictly below 50% in Activity; Criterion met otherwise

Q: Check this molecule for Activity at or above 50%: O=P(O)(O)C(Nc1ccc(C(F)(F)F)cc1)P(=O)(O)O
Ans: Criterion not met

Q: Check this molecule for Activity at or above 50%: O=P(O)(O)C(Nc1ccc(Oc2ccc(Cl)cc2)cc1)P(=O)(O)O
Ans: Criterion met

Q: Check this molecule for Activity at or above 50%: O=P(O)(O)C(Nc1ccc(Oc2ccc(Br)cc2)cc1)P(=O)(O)O
Ans: Criterion met

Q: Check this molecule for Activity at or above 50%: O=P(O)(O)C(Nc1ccc(Cl)c(Cl)c1)P(=O)(O)O
Ans: Criterion met

Q: Check this molecule for Activity at or above 50%: O=P(O)(O)C(Nc1cccc(Br)c1)P(=O)(O)O
Ans: Criterion met

====

assay: Cytotoxicity against human HepG2 cells assessed as cell viability at 100 uM after 48 hrs by MTT assay; assay type: cell-based; settings: read-out: Activity
Please provide measured viability at 48 h, 100 µM for the entries that follow.
Your answer is read as %, so omit the unit and give the number.

O=P(O)(O)C(Nc1ccc(Cl)c(Cl)c1)P(=O)(O)O has a reported viability at 48 h, 100 µM of 98

O=P(O)(O)C(Nc1ccc(Cl)cc1Cl)P(=O)(O)O has a reported viability at 48 h, 100 µM of 73

O=P(O)(O)C(Nc1cccc(F)c1)P(=O)(O)O has a reported viability at 48 h, 100 µM of 70

O=P(O)(O)C(Nc1cccc(-c2ccccc2)c1)P(=O)(O)O has a reported viability at 48 h, 100 µM of 102

O=P(O)(O)C(Nc1ccccc1)P(=O)(O)O has a reported viability at 48 h, 100 µM of 96

O=P(O)(O)C(Nc1ccc(O)cc1)P(=O)(O)O has a reported viability at 48 h, 100 µM of 101

O=P(O)(O)C(Nc1ccc(Br)cc1)P(=O)(O)O has a reported viability at 48 h, 100 µM of 94

O=P(O)(O)C(Nc1ccc(Oc2ccc(Cl)cc2)cc1)P(=O)(O)O has a reported viability at 48 h, 100 µM of 87

O=[N+]([O-])c1ccc(NC(P(=O)(O)O)P(=O)(O)O)cc1 has a reported viability at 48 h, 100 µM of 84

O=P(O)(O)C(Nc1ccc(F)cc1)P(=O)(O)O has a reported viability at 48 h, 100 µM of 94

O=P(O)(O)C(Nc1cccc(Br)c1)P(=O)(O)O has a reported viability at 48 h, 100 µM of 67

O=[N+]([O-])c1cc(NC(P(=O)(O)O)P(=O)(O)O)ccc1F has a reported viability at 48 h, 100 µM of 69

O=P(O)(O)C(Nc1cccc(C(F)(F)F)c1)P(=O)(O)O has a reported viability at 48 h, 100 µM of 83

O=P(O)(O)C(Nc1ccc(-c2ccccc2)cc1)P(=O)(O)O has a reported viability at 48 h, 100 µM of 88

O=P(O)(O)C(Nc1cccc2ccccc12)P(=O)(O)O has a reported viability at 48 h, 100 µM of 98

Cc1ccc(NC(P(=O)(O)O)P(=O)(O)O)cc1 has a reported viability at 48 h, 100 µM of 104

O=P(O)(O)C(Nc1ccc(Cl)cc1)P(=O)(O)O has a reported viability at 48 h, 100 µM of 97

O=P(O)(O)C(Nc1ccc(Oc2ccc(Br)cc2)cc1)P(=O)(O)O has a reported viability at 48 h, 100 µM of 90

O=P(O)(O)C(Nc1ccc(Oc2ccccc2)cc1)P(=O)(O)O has a reported viability at 48 h, 100 µM of 105

O=[N+]([O-])c1cccc(NC(P(=O)(O)O)P(=O)(O)O)c1 has a reported viability at 48 h, 100 µM of 83

N#Cc1ccc(NC(P(=O)(O)O)P(=O)(O)O)cc1 has a reported viability at 48 h, 100 µM of 77

O=P(O)(O)C(Nc1ccc(C(F)(F)F)cc1)P(=O)(O)O has a reported viability at 48 h, 100 µM of 100

O=P(O)(O)C(Sc1ccc(Cl)cc1)P(=O)(O)O has a reported viability at 48 h, 100 µM of 61

====

Recorded pIC50 values (Matrix metalloproteinase-9 (Homo sapiens, UniProt P14780)) are given below.
pIC50: −log10 of the molar value.

O=P(O)(O)C(Nc1ccc(O)cc1)P(=O)(O)O has a reported pIC50 of < 4.00

O=P(O)(O)C(Nc1ccc(Oc2ccccc2)cc1)P(=O)(O)O has a reported pIC50 of < 4.00

N#Cc1ccc(NC(P(=O)(O)O)P(=O)(O)O)cc1 has a reported pIC50 of < 4.00

O=P(O)(O)C(Nc1ccc(C(F)(F)F)cc1)P(=O)(O)O has a reported pIC50 of < 4.00

O=P(O)(O)C(Sc1ccc(Cl)cc1)P(=O)(O)O has a reported pIC50 of < 4.00

O=P(O)(O)C(Nc1ccc(Cl)cc1Cl)P(=O)(O)O has a reported pIC50 of < 4.00

O=P(O)(O)C(Nc1ccc(Oc2ccc(Cl)cc2)cc1)P(=O)(O)O has a reported pIC50 of 4.26

O=[N+]([O-])c1ccc(NC(P(=O)(O)O)P(=O)(O)O)cc1 has a reported pIC50 of 4.70

O=P(O)(O)C(Nc1ccccc1)P(=O)(O)O has a reported pIC50 of < 4.00

Cc1ccc(NC(P(=O)(O)O)P(=O)(O)O)cc1 has a reported pIC50 of < 4.00

====

test system: Hydroxyapatite; assay: Binding affinity to bone mineral hydroxyapatite assessed as adsorbed level at 100 uM after 2 hrs by UV-spectrophotometric analysis
quantity kind: Activity (%)
Your answer is read as %, so omit the unit and give the number.

The measured Activity that O=[N+]([O-])c1cc(NC(P(=O)(O)O)P(=O)(O)O)ccc1F showed for Hydroxyapatite is 66.2

The measured Activity that O=P(O)(O)C(Nc1ccc(Cl)cc1Cl)P(=O)(O)O showed for Hydroxyapatite is 56.8

The measured Activity that O=P(O)(O)C(Nc1cccc2ccccc12)P(=O)(O)O showed for Hydroxyapatite is 51.6

The measured Activity that O=P(O)(O)C(Nc1ccc(O)cc1)P(=O)(O)O showed for Hydroxyapatite is 88

The measured Activity that O=P(O)(O)C(Nc1ccc(-c2ccccc2)cc1)P(=O)(O)O showed for Hydroxyapatite is 60

The measured Activity that O=P(O)(O)C(Nc1ccc(Cl)cc1)P(=O)(O)O showed for Hydroxyapatite is 64.2

The measured Activity that Cc1ccc(NC(P(=O)(O)O)P(=O)(O)O)cc1 [(P-TOLYLAMINO)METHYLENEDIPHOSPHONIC ACID] showed for Hydroxyapatite is 23.9

The measured Activity that N#Cc1ccc(NC(P(=O)(O)O)P(=O)(O)O)cc1 showed for Hydroxyapatite is 76

The measured Activity that O=[N+]([O-])c1cccc(NC(P(=O)(O)O)P(=O)(O)O)c1 showed for Hydroxyapatite is 57.8

The measured Activity that O=P(O)(O)C(Sc1ccc(Cl)cc1)P(=O)(O)O [TILUDRONIC ACID] showed for Hydroxyapatite is 51.5

The measured Activity that O=P(O)(O)C(Nc1cccc(C(F)(F)F)c1)P(=O)(O)O showed for Hydroxyapatite is 50.3

====

test system: Hydroxyapatite; test: Binding affinity to bone mineral hydroxyapatite assessed as adsorbed level at 100 uM after 2 hrs by UV-spectrophotometric analysis
Hi! Could you tag entries with Activity below 70% as condition met, and those at or above as condition not met? Much appreciated.

Q: hey, is Activity for O=P(O)(O)C(Nc1cccc(-c2ccccc2)c1)P(=O)(O)O lower than 70% or not?
Ans: condition met

Q: hey, is Activity for O=P(O)(O)C(Nc1ccc(Oc2ccccc2)cc1)P(=O)(O)O lower than 70% or not?
Ans: condition met

Q: hey, is Activity for O=[N+]([O-])c1ccc(NC(P(=O)(O)O)P(=O)(O)O)cc1 lower than 70% or not?
Ans: condition not met

Q: hey, is Activity for O=P(O)(O)C(Nc1ccc(F)cc1)P(=O)(O)O lower than 70% or not?
Ans: condition met

Q: hey, is Activity for O=P(O)(O)C(Nc1cccc(F)c1)P(=O)(O)O lower than 70% or not?
Ans: condition met

Q: hey, is Activity for O=P(O)(O)C(Nc1ccccc1)P(=O)(O)O [(PHENYLAMINO)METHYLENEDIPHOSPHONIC ACID] lower than 70% or not?
Ans: condition met

====

biological target: Neutrophil collagenase (Homo sapiens); experiment: Inhibition of MMP8 catalytic domain (unknown origin) using Mca-Pro-Leu-Gly-Leu-Dpa-Ala-Arg-NH2 as substrate incubated for 30 mins prior to substrate addition measured after 2 to 4 hrs by fluorometric assay
Sequence (P22894 whole entry, the tested form may be a part): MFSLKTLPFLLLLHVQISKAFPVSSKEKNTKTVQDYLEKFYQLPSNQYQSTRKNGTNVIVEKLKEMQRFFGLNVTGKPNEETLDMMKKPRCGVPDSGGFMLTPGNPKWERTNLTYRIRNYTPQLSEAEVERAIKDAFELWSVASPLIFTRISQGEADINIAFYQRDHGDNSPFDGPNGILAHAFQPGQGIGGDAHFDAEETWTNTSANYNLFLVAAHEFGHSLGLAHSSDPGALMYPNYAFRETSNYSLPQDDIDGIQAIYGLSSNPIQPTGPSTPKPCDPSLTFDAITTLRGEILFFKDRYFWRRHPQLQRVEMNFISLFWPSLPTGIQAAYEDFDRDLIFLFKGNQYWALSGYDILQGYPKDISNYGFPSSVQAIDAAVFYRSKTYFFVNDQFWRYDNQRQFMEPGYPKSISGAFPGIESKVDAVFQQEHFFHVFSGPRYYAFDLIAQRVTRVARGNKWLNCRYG
Please provide measured IC50 for the entries that follow.
Your answer is read as µM, so omit the unit and give the number.

O=P(O)(O)C(Nc1ccc(Oc2ccc(Br)cc2)cc1)P(=O)(O)O has a reported IC50 of 43

O=P(O)(O)C(Nc1cccc(-c2ccccc2)c1)P(=O)(O)O has a reported IC50 of 52

O=P(O)(O)C(Nc1ccc(Oc2ccccc2)cc1)P(=O)(O)O has a reported IC50 of 44

O=P(O)(O)C(Nc1ccc(-c2ccccc2)cc1)P(=O)(O)O has a reported IC50 of 30

Cc1ccc(NC(P(=O)(O)O)P(=O)(O)O)cc1 has a reported IC50 of 36

O=P(O)(O)C(Nc1cccc2ccccc12)P(=O)(O)O has a reported IC50 of 61

O=P(O)(O)C(O)(Cn1ccnc1)P(=O)(O)O has a reported IC50 of 17.6

O=P(O)(O)C(Sc1ccc(Cl)cc1)P(=O)(O)O has a reported IC50 of 32

O=[N+]([O-])c1ccc(NC(P(=O)(O)O)P(=O)(O)O)cc1 has a reported IC50 of 15

O=P(O)(O)C(Nc1ccc(Cl)c(Cl)c1)P(=O)(O)O has a reported IC50 of 25.5

O=P(O)(O)C(Nc1ccc(Br)cc1)P(=O)(O)O has a reported IC50 of 2.4

O=P(O)(O)C(Nc1ccc(Oc2ccc(Cl)cc2)cc1)P(=O)(O)O has a reported IC50 of 39.9
